Reference for the values: PubChem BioAssay AID1159580

# assay_overview: chemical genetic growth profiling, strain panel (AID 1159580);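 note: tested at 20 µM; growth read once vehicle control cultures reached saturation at 30 °C; 1 = growth at the plate median or of vehicle wells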
# condition_info: S. cerevisiae deletion strains, growth OD, locus YAL013W, strain DEP1, hits give low values
The campaign covered roughly 5,500 compounds. About 2,000 (36%) were called active. About 18% were inconclusive and are not listed. The list shows a part of the results.
normalized growth strictly less than 1 = 1.0. Otherwise 0.0.

Please review the following examples before continuing.
>  <compound>
O=C1c2c(O)cccc2Cc2cccc(O)c21

>  <group_label>
0.0

$$$$
>  <compound>
Nc1c2ccccc2nc2ccccc12

>  <group_label>
1.0

$$$$
>  <compound>
N=C(N)c1ccc(OCCCCCOc2ccc(C(=N)N)cc2)cc1 (tested in a mixture with another compound)

>  <group_label>
1.0

$$$$
>  <compound>
O=C1ON=C(c2ccccc2)/C1=C/c1ccc(Cl)cc1

>  <group_label>
1.0

$$$$
>  <compound>
NCC#Cc1ccccc1

>  <group_label>
0.0

$$$$
>  <compound>
S=C(NCc1ccccc1)Nc1ccc(Cl)c(Cl)c1

>  <group_label>
1.0

$$$$

## Task Determine whether this compound shows normalized growth lower than 1 (ties excluded): O=C(Nc1ccc(Cl)c(Cl)c1)c1ccccc1
## Result 1.0

## Task Determine whether this compound shows normalized growth lower than 1 (ties excluded): C=C/C(C)=C\CC1C(C)(O)CCC2C(C)(C)CCCC21C (stereo not drawn)
## Result 1.0

###

# assay_overview: chemical genetic growth profiling, strain panel (AID 1159580);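 note: tested at 20 µM; growth read once vehicle control cultures reached saturation at 30 °C; 1 = growth at the plate median or of vehicle wells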
# condition_info: S. cerevisiae deletion strains, growth OD, locus YIR030C, strain dcg1, hits give low values
About 2,000 (36%) of roughly 5,500 compounds were called active. Another 18% or so got no clear call; they are omitted. Some of the results follow.
observation_type: normalized growth
The answer should be a number; do not append a unit.

Previously resolved entries follow.
>  <compound>
O=C1c2c(O)cccc2Cc2cccc(O)c21

>  <normalized growth>
0.992

$$$$
>  <compound>
CC(=O)OC1CC(OC(C)=O)C2(C)C(CC(OC(C)=O)C3(C)C4=CC(=O)OC(=O)C4(C)CCC32)C1(C)C (configuration not stated)

>  <normalized growth>
0.999

$$$$
>  <compound>
CC(=O)NC(C(=O)O)C(C)(C)SN=O (configuration not stated)

>  <normalized growth>
1

$$$$
>  <compound>
COc1ccc2[nH]cc(CCN)c2c1

>  <normalized growth>
0.976

$$$$
>  <compound>
C[C@@H]1CC[C@]2(C(=O)O)CC[C@]3(C)C(=CCC4[C@@]5(C)CC[C@H](O)C(C)(C)C5CC[C@]43C)C2[C@H]1C (some centres not stated)

>  <normalized growth>
0.997

$$$$
>  <compound>
CC(=O)OC1CC[C@@]2(C)C(CC[C@]3(C)C2CCC2C4CC(C)(C)CCC4(C(=O)O)CC[C@]23C)C1(C)C (some centres not stated)

>  <normalized growth>
0.974

$$$$

Moving on to the next compound.
Given item CO[C@@]12[C@@H]3NC3CN1C1=C(C(=O)C(N)=C(C)C1=O)[C@@H]2COC(N)=O (some centres not stated) , the value recorded as its normalized growth is 0.991

###

# assay_overview: chemical genetic growth profiling, strain panel (AID 1159580);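 note: tested at 20 µM; growth read once vehicle control cultures reached saturation at 30 °C; 1 = growth at the plate median or of vehicle wells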
# condition_info: S. cerevisiae deletion strains, growth OD, locus YOR316C, strain cot1
Out of some 5,500 compounds screened, about 2,000 (36%) were called active. Roughly 18% stayed inconclusive and do not appear here. Cut-off read from the data, not from the text of the source: active = normalized growth mostly below about 0.91 (no sharp cut-off); inconclusive = no clear call, values can overlap the other calls; inactive = mostly above about 0.92. The list shows a part of the results.
Permitted responses: active, inactive

Please review the following examples before continuing.
>  <molecule>
CC(C)=CCCC1(C)C=Cc2c(O)c3c(c(CC=C(C)C)c2O1)OC12C(=CC4CC1C(C)(C)OC2(C/C=C(/C)C(=O)O)C4=O)C3=O (configuration not stated)

>  <group_label>
inactive

$$$$
>  <molecule>
CC(=O)OC1CC(OC(C)=O)C2(C)C(CC(OC(C)=O)C3(C)C4=CC(=O)OC(=O)C4(C)CCC32)C1(C)C (configuration not stated)

>  <group_label>
inactive

$$$$
>  <molecule>
CCC(C)C(NC)C(=O)O (configuration not stated)

>  <group_label>
inactive

$$$$
>  <molecule>
O=C(COc1ccc(Cl)cc1)N1CCN(Cc2ccc3c(c2)OCO3)CC1

>  <group_label>
inactive

$$$$
>  <molecule>
Fc1ccc(C(c2ccccc2)(c2ccccc2F)n2ccnc2)cc1 (configuration not stated)

>  <group_label>
active

$$$$

## Task Hello, I am checking results. What call was entered for Nc1ccc(S(=O)(=O)c2ccc(N)cc2)cc1 ?
## Result inactive

## Task Hello, I am checking results. What call was entered for N[C@H](C(=O)O)[C@@H]1CC(Cl)=NO1 ?
## Result active

## Task Hello, I am checking results. What call was entered for NC(Cc1c[nH]c2ccccc12)C(=O)O (configuration not stated) ?
## Result inactive

## Task Hello, I am checking results. What call was entered for NC12CC3CC(CC(C3)C1)C2 ?
## Result inactive

## Task Hello, I am checking results. What call was entered for CC(=O)OC1CC[C@@]2(C)C(CC[C@]3(C)C2CCC2C4CC(C)(C)CCC4(C(=O)O)CC[C@]23C)C1(C)C (some centres not stated) ?
## Result inactive

## Task Hello, I am checking results. What call was entered for O=C1C(O)=C(O)C(=O)C(O)=C1O ?
## Result inactive
